# study.target: TbMDO (Trypanosoma brucei MacroD-like protein) (Trypanosoma brucei, UniProt C9ZP98)
# Construct: gene TbgDal_V3640; full-length, codon-optimized synthetic cDNA, pNH-TrxT vector, E. coli BL21(DE3), fusion tags cut with TEV protease; crystal structures comprise residues 11-261
# Sequence (C9ZP98 1-265): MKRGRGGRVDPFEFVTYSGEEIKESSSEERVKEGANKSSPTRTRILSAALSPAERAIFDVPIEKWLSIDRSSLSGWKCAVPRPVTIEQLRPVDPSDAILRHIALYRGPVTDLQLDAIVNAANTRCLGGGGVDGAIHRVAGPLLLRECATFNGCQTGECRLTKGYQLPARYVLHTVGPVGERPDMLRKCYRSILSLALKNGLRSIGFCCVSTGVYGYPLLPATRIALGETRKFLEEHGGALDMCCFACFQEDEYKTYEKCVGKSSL
# experimental.details: isothermal titration calorimetry
# Assay type: binding
# details: pH 7.5, 50 mM HEPES, 250 mM NaCl, 0.5 mM TCEP, 25 °C; three titrations; same data as the Ka row; read-out: affinities
pKd: −log10 of the molar value.
quantity.measured: pKd

1) Nc1ncnc2c1ncn2[C@@H]1O[C@H](COP(=O)(O)OP(=O)(O)OC[C@H]2OC(O)[C@H](O)[C@@H]2O)[C@@H](O)[C@H]1O (stereo partly shown) ... 5.89

---

# study.target: TcMDO (Trypanosoma cruzi MacroD-like protein) (Trypanosoma cruzi)
# Construct: gene Tc00.1047053509179.20; full-length, codon-optimized synthetic cDNA, pNH-TrxT vector, E. coli BL21(DE3), fusion tags cut with TEV protease; crystal structure comprises residues 13-257
# Sequence (Q4DQ03 1-267): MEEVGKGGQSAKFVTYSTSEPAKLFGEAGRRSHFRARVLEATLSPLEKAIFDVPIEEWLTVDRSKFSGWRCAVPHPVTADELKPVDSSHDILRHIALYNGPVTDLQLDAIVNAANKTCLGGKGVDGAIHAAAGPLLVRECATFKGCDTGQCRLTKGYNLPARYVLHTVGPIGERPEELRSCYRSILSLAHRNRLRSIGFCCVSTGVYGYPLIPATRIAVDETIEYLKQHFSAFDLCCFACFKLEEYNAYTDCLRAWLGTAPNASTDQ
# experimental.details: isothermal titration calorimetry
# Assay type: binding
# details: pH 7.5, 50 mM HEPES, 250 mM NaCl, 0.5 mM TCEP, 25 °C; three titrations; same data as the Ka row; read-out: affinities
pKd: −log10 of the molar value.
quantity.measured: pKd

1. Nc1ncnc2c1ncn2[C@@H]1O[C@H](COP(=O)(O)OP(=O)(O)OC[C@H]2OC(O)[C@H](O)[C@@H]2O)[C@@H](O)[C@H]1O (stereo partly shown) [ADP-ribose] ... 6.70

Where these numbers come from: paper PMC4827093
